test: Cytotoxicity against mock-infected human MT4 cells after 5 days by MTT assay; assay type: cell-based
observable: CC50 at 120 h

The following compounds have reported results that may help.
| structure-smiles-string | CC50 at 120 h |
| --- | --- |
| Cc1c(Cc2c(Cl)cccc2Cl)nc(SCC(=O)Nc2ccc(Cl)c(Cl)c2)[nH]c1=O | > 248 µM |
| O=C(CSc1nc(Cc2c(Cl)cccc2Cl)cc(=O)[nH]1)Nc1ccc(F)c(Cl)c1 | > 264 µM |
| O=C(CSc1nc(Cc2c(Cl)cccc2Cl)cc(=O)[nH]1)Nc1ccc(Cl)cc1 | 24.8 µM |

Noted for `COc1ccc(NC(=O)CSc2nc(Cc3c(Cl)cccc3Cl)cc(=O)[nH]2)cc1OC` : its CC50 at 120 h reads 166 µM

Please fill in: CC50 at 120 h reported for `COc1ccc(NC(=O)CSc2nc(Cc3c(Cl)cccc3Cl)cc(=O)[nH]2)cc1` = 25.5 µM

CC50 at 120 h reported for this compound `O=C(CSc1nc(Cc2c(Cl)cccc2Cl)cc(=O)[nH]1)Nc1ccc(Cl)c(Cl)c1` : 19.6 µM

The compound listed as `Cc1c(Cc2c(Cl)cccc2Cl)nc(SCC(=O)Nc2ccc(Br)cc2)[nH]c1=O` shows CC50 at 120 h equal to > 244 µM

Entry under test: `Cc1c(Cc2c(Cl)cccc2Cl)nc(SCC(=O)Nc2ccc(F)c(F)c2)[nH]c1=O` . Its CC50 at 120 h was > 266 µM

====

assay: Cytotoxicity against mock-infected human MT4 cells after 5 days by MTT assay; format: cell-based
observable: CC50 at 120 h

| structure-smiles-string | reading |
| --- | --- |
| O=C(CSc1nc(Cc2c(Cl)cccc2Cl)cc(=O)[nH]1)Nc1ccc(F)c(F)c1 | > 274 µM |
| COc1ccc(NC(=O)CSc2nc(Cc3c(Cl)cccc3Cl)c(C)c(=O)[nH]2)cc1OC | > 253 µM |
| O=C(CSc1nc(Cc2c(Cl)cccc2Cl)cc(=O)[nH]1)Nc1ccc(Br)cc1 | 22.8 µM |

Field CC50 at 120 h (entry `Cc1c(Cc2c(Cl)cccc2Cl)nc(SCC(=O)Nc2ccc(F)c(Cl)c2)[nH]c1=O` ) reads > 257 µM

Item: `O=C(CSc1nc(Cc2c(Cl)cccc2Cl)cc(=O)[nH]1)Nc1ccc([N+](=O)[O-])cc1` | CC50 at 120 h: > 269 µM

CC50 at 120 h recorded for this compound, `Cc1c(Cc2c(Cl)cccc2Cl)nc(SCC(=O)Nc2ccc([N+](=O)[O-])cc2)[nH]c1=O` , is > 261 µM

CC50 at 120 h measured on `COc1ccc(NC(=O)CSc2nc(Cc3c(Cl)cccc3Cl)c(C)c(=O)[nH]2)cc1` = 10.8 µM

In plain terms, `Cc1ccc(NC(=O)CSc2nc(Cc3c(Cl)cccc3Cl)cc(=O)[nH]2)cc1` has a documented CC50 at 120 h of ≥ 47.4 µM

The compound identified as `Cc1c(Cc2c(Cl)cccc2Cl)nc(SCC(=O)Nc2ccc(Cl)cc2)[nH]c1=O` registered its CC50 at 120 h at > 267 µM

====

tested on: Human immunodeficiency virus 1; assay: Antiviral activity against HIV1 3B infected in human MT4 cells assessed as inhibition of virus-induced cytopathic effect after 5 days by MTT assay; format: functional, organism-based; conditions: Human immunodeficiency virus 1, 3B, MT4, 120 h
In plain terms, low EC50, meaning strictly below 900 nM, gives Satisfied, and everything else gives Not satisfied.

| structure-smiles-string | class-label |
| --- | --- |
| Cc1c(Cc2c(Cl)cccc2Cl)nc(SCC(=O)Nc2ccc(F)c(Cl)c2)[nH]c1=O | Not satisfied |

Query string: is_below(EC50, 900 nM) for `Cc1c(Cc2c(Cl)cccc2Cl)nc(SCC(=O)Nc2ccc([N+](=O)[O-])cc2)[nH]c1=O` ?
Result string: Not satisfied

Query string: Given `Cc1c(Cc2c(Cl)cccc2Cl)nc(SCC(=O)Nc2ccc(Cl)c(Cl)c2)[nH]c1=O` , is recorded EC50 strictly lower than 900 nM?
Result string: Not satisfied

Query string: Check if EC50 falls below 900 nM for `Cc1c(Cc2c(Cl)cccc2Cl)nc(SCC(=O)Nc2ccc(Br)cc2)[nH]c1=O` .
Result string: Satisfied

Query string: Lab note: confirm whether the reported EC50 for this compound is below 900 nM, equality not counting. compound: `O=C(CSc1nc(Cc2c(Cl)cccc2Cl)cc(=O)[nH]1)Nc1ccc([N+](=O)[O-])cc1`
Result string: Not satisfied

Query string: Would you kindly verify if EC50 of `O=C(CSc1nc(Cc2c(Cl)cccc2Cl)cc(=O)[nH]1)Nc1ccc(F)c(Cl)c1` is strictly less than 900 nM?
Result string: Not satisfied

Query string: Lab log: compare recorded EC50 with 900 nM; is it strictly lower for `COc1ccc(NC(=O)CSc2nc(Cc3c(Cl)cccc3Cl)c(C)c(=O)[nH]2)cc1OC` ?
Result string: Not satisfied
